Listed here: items and their measured growth.
# Test system: NCI-H23 lung
# protocol-summary: NCI-60 one-dose screen, 48 h (100 = growth as untreated, 0 = no growth, -100 = all killed)
# test-settings: 10 µM unless noted
Compounds without any hit were thinned out: in the full panel of roughly 83,000, 20% have a hit.
// units = %; emit number, no label

Answered examples (4):
COc1cc(-c2csc(NC(=O)Nc3cc(Cl)cc(Cl)c3)n2)cc(OC)c1OC; 23.7
O=c1[nH]nc(-c2ccccc2)c2sc(NC(=S)Nc3ccc(Cl)cc3)nc12; 86
CCSc1ccc(C2C(Br)C(=O)N2c2cc(OC)c(OC)c(OC)c2)cc1 (centres undefined); 25.2
CC(C)(C)CC(C)(C)Cc1ccc(OCCOCC[N+](C)(C)Cc2ccccc2)cc1; 20.7

Quick check: growth on NCI-H23 lung, item NS(=O)(=O)c1ccc(C2C3=C(CCCC3=O)OC3=C2C(=O)c2ccccc2C3=O)cc1 (centres undefined) ?
-31.3

Now try Cc1cc2ccccc2c[n+]1CC(=O)c1ccc(-c2ccccc2)cc1 .
48.6

Ok, now CCCCCCC/C=C/[C@H]1O[C@]23C(=O)C[C@@]4(C[C@@H](OC5OC(CO)C(O)C(O)C5O)C[C@@H]4[C@H]2C=C1C)OC3=O (some centres undefined)
40.8

Can you handle CCCn1c(N)c(C(N)=O)sc1=S next?
105

Another: C=C1C(=O)O[C@H]2[C@H]1CC/C(COC(=O)N1CCC[C@H]1C(=O)Nc1ccc(OC)c(C(N)=O)c1O)=C\CC[C@@]1(C)O[C@@H]21
79.5

Queued: CCCCCCCCCCCCCC1=NCC[N+]1(CCO)Cc1ccccc1 (centres undefined)
-67

Follow-up entry: COc1ccc2nc3c(n2c1)C(=O)C(=O)c1ccccc1-3
-42.1

Then what about the molecule COc1ccc2[nH]c3nc4cnccc4cc3c2c1 ?
95.2

Now consider O=[N+]([O-])c1ccc(N=Nc2c(O)c(N=Nc3cc([N+](=O)[O-])cc([N+](=O)[O-])c3O)cc(N=Nc3cc(S(=O)(=O)O)cc4cc(S(=O)(=O)O)cc(O)c34)c2O)cc1 and answer again.
96.4

Next molecule up: COc1ccc(/C=C/C(=O)c2ccc(NC(=O)CSc3nnc(-c4ccc(OC)c(OC)c4)n3-c3ccccc3)cc2)cc1
21.3

Request: C=C1C(=O)O[C@H]2[C@H]1CC/C(COC(=O)CCC(=O)OC/C1=C/CC[C@@]3(C)O[C@H]3[C@H]3OC(=O)C(=C)[C@@H]3CC1)=C\CC[C@@]1(C)O[C@@H]21
58.5

---

# Tested on: OVCAR-4 ovarian
# protocol-summary: NCI-60 one-dose screen, 48 h
# test-settings: 10 µM unless noted
The panel holds about 83,000 compounds, 20% with a hit somewhere; the sample as a whole holds those more often. Activity calls are given as the source filed them. Rule for the calls: active = growth percent below 10; inactive = the rest.
Log the outcome using a class from active, inactive

N#Cc1ccc(N2Cc3cc(Cl)ccc3OC3=C2C(=O)N(Cc2ccccc2)C3=O)cc1; active
Nn1c(SCC(=O)Nc2ccc(Cl)cc2)nnc1-c1cc(F)c(Cl)cc1Cl; inactive
COC(=O)[C@]1(C)CCC[C@]2(C)[C@H]3C[C@H]4C(C(C)C)=C[C@]3(CC[C@H]21)[C@@H]1C(=O)N(CCC#N)C(=O)[C@@H]14; inactive
CC(=O)c1cc2c(N)c(C(=O)Nc3ccccn3)sc2nc1C; inactive
CC(C)C1=C[C@@]23CC[C@H]4[C@](C)(COCCC#N)CCC[C@]4(C)[C@H]2C[C@@H]1[C@@H]1[C@H]3[C@@H](OCCC#N)CC[C@@H]1OCCC#N; inactive
C(=C\c1cn(-c2ccccc2)nc1-c1ccccc1)/c1nnc(-c2c[nH]c3ccccc23)o1; inactive
O=C1CC(c2ccc(O)c(O)c2)Oc2cc(O)c([C@@H]3O[C@H](CO)[C@@H](O)[C@H](O)[C@H]3O)c(O)c21 (some centres not stated); inactive
COCCc1n(Cc2ccc3ccccc3c2)c2ccccc2[n+]1Cc1ccc2ccccc2c1; active
C#C[C@@]1(O)[C@@H](CO)O[C@@H](n2cc(Br)c3c(N)ncnc32)[C@@H]1O; active
C#CCN(CCCOc1ccc(Cl)cc1Cl)CCCSC(=O)CCCCCN1/C(=C\C=C2/CCCC(/C=C/C3=[N+](CCCCCC(=O)[O-])c4ccccc4C3(C)C)=C2Cl)C(C)(C)c2ccccc21; inactive

Would you kindly look at the next entry?
What classification did C=C(C)[C@@H]1CC[C@]2(C(=O)n3ccnc3)CC[C@]3(C)[C@H](CC[C@@H]4[C@@]5(C)CCCNC(C)(C)[C@@H]5CC[C@]43C)[C@@H]12 end up with in this test?
inactive

---

Entries and their measured growth follow.
# Test system: MALME-3M melanoma
# protocol-summary: NCI-60 one-dose screen, 48 h (100 = growth as untreated, 0 = no growth, -100 = all killed)
# test-settings: 10 µM unless noted
The panel holds about 83,000 compounds, 20% with a hit somewhere; the sample as a whole holds those more often.
Reply with just the number (in %).

O=C(O)C(C(=O)O)c1cccc2ccccc12; 107

# evaluate next
What reported growth corresponds to C=C1C(=O)O[C@H]2[C@H]1CC/C(COC(=O)c1cc3ccccc3o1)=C\CC[C@@]1(C)O[C@@H]21 on MALME-3M melanoma?
-70.3

---

# growth per entry
# Test system: SK-MEL-28 melanoma
# protocol-summary: NCI-60 one-dose screen, 48 h (100 = growth as untreated, 0 = no growth, -100 = all killed)
# test-settings: 10 µM unless noted
This is part of a sample that, as a whole, favours compounds with a hit. Of some 83,000 tested, about 20% had one in any assay.
Output spec: scalar in %, unitless text.

CCOCc1cc(C(C)(C)C)ccc1O; 106

Request the reported growth associated with Cc1[nH]c(N=Nc2ccccc2)nc1N=Nc1ccccc1
52.2

Further, for Cc1c(C(=O)Nc2nc3ccccc3[nH]2)cnn1-c1ccccn1 ?
112

Query CCOC(=O)/C(=C/c1c(-c2ccccc2)[nH]c2ccccc12)C(=O)c1ccc(Cl)cc1 next
75.6

Next entry: COCCOCCOCc1n(Cc2ccc3ccccc3c2)c2ccccc2[n+]1Cc1ccc2ccccc2c1
16.8

Entry CCOC(=O)c1c(C)nc2c(c1N)/C(=C/c1cccs1)C(=O)N2Cc1ccccc1 please
90.2

---

# System: NCI-H522 lung
# protocol-summary: NCI-60 one-dose screen, 48 h (100 = growth as untreated, 0 = no growth, -100 = all killed)
# test-settings: 10 µM unless noted
Compounds without any hit were thinned out: in the full panel of roughly 83,000, 20% have a hit.
Recorded growth by entry
Please reply with the bare figure in % and do not write the unit itself.

C#C[C@@]1(O)[C@@H](CO)O[C@@H](n2cc(Cl)c3c(N)ccnc32)[C@@H]1O; 75.1
N#Cc1c(-c2ccc(F)cc2)c(C#N)c2c(C#N)c(N)nn2c1N; 85.7
COc1ccc(-c2[nH]c3ccccc3c2C=C(C#N)C#N)cc1; -48.5
O=C1Nc2ccc(Cl)cc2/C1=N/c1nc(-c2ccc(F)cc2)cs1; 20.7
CCOC(=O)c1c(C(F)(F)F)n([O-])c2ccc(Cl)cc2[n+]1=O; -59.4

// lookup growth | system=NCI-H522 lung | key= O=C1C(=O)c2c(nc3ccc(C(F)(F)F)cn23)-c2ccccc21
-72.4

Same question, CCSc1nc(Cl)c(C#N)c(-c2ccc(F)cc2)n1 this time
92.8

And the next one, O=C(Nc1ccc2ncnc(Nc3ccc(F)c(Cl)c3)c2c1)c1ccccc1 ?
55.6

Follow-up entry: COc1ccc2nc(-c3ccc(Cl)cc3)cc(-c3nnc(SCC(=O)Nc4ccc(/C(C)=N\O)cc4)o3)c2c1
9.31

Also check C=C(C)[C@@H]1CC[C@]2(C(=O)N3CCN(C)CC3)CC[C@]3(C)[C@H](CC[C@@H]4[C@@]5(C)C/C(=C/c6ccco6)C(=O)C(C)(C)[C@@H]5CC[C@]43C)[C@@H]12
74

Please give the result for COc1cc(/C=C/C(=O)/C=C/c2cc3ccc(Cl)cc3n(Cc3ccccc3)c2=O)ccc1O too.
-37.6

Do the same for COc1c(O)cc2oc3cc(O[C@@H]4OC(C)[C@@H](O)[C@H](O)C4O)c(CC=C(C)C)c(O)c3c(=O)c2c1CC=C(C)C (some centres undefined) please
68.5

Query COc1ccc(Nc2nc(SCC(C)C)nc(-c3ccc(F)cc3)c2C#N)cc1 next
35.5

Then what about the compound C[C@]12CC[C@@H]3c4ccc(O)cc4CC[C@H]3[C@@H]1C[C@H](O)C2 ?
54.6

Repeat with COC(=O)/C=C1\SC(=Nc2cccc(OC)c2)N(CCc2c[nH]c3ccccc23)C1=O
28.4

Now try CCC[S@@](=O)c1ccc2nc(NC(=O)OC)[nH]c2c1 .
59.9

Try this compound next: COc1cc(C2=NN(c3ccccc3)C(c3cccc(Nc4ccnc5cc(C(F)(F)F)ccc45)c3)C2)cc(OC)c1OC (centres undefined)
76.4

Query Cc1cc(C)nc(NS(=O)(=O)c2ccc(Nc3ccc4c5c(n(CCCN(C)C)c(=O)c4c3)-c3ccccc3C5=O)cc2)n1 next
73

Next record, please: CC(C)CSc1nc(Nc2ccccc2)c(C#N)c(-c2ccc(F)cc2)n1
59.1
